Known IC50 of a selection of compounds
# tested target: hLPAR1 (Homo sapiens, UniProt Q92633)
# Sequence (Q92633 whole entry): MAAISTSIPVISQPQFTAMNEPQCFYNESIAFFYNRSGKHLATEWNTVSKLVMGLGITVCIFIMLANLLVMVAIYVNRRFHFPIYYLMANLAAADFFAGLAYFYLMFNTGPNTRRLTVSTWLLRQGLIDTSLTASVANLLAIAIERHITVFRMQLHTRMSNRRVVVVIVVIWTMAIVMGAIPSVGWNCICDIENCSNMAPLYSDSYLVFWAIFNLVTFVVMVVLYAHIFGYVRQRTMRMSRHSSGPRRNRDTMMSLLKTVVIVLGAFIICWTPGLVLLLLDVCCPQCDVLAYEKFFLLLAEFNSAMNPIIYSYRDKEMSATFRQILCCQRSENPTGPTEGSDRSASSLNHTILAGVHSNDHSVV
# experiment summary: Ca2+ Flux Assay (B103 cells stably expressing hLPAR1)
# measurement context: LPA-induced calcium release, Fura-2 AM, compound 20 min at RT
observed property: IC50

>  <compound>
C=CCS(=O)(=O)NC(=O)C1(c2ccc(N3CCC(c4onc(C)c4NC(=O)O[C@H](C)c4ccccc4)CC3)cc2)CC1

>  <tested target>
hLPAR1 (Homo sapiens, UniProt Q92633)

>  <val>
< 10 nM

$$$$
>  <compound>
Cc1noc(N2CCC(c3ccc(C4(C(=O)O)CC4)cc3)CC2)c1NC(=O)O[C@H](C)c1ccccc1

>  <tested target>
hLPAR1 (Homo sapiens, UniProt Q92633)

>  <val>
< 10 nM

$$$$
>  <compound>
Cc1nsc(C2CCN(c3ccc(C4(C(=O)O)CC4)cc3)CC2)c1NC(=O)O[C@H](C)c1ccccc1Cl

>  <tested target>
hLPAR1 (Homo sapiens, UniProt Q92633)

>  <val>
10 to 200 nM

$$$$
>  <compound>
Cc1noc(C2CCN(c3ccc(C4(c5cc(O)no5)CC4)cc3)CC2)c1NC(=O)O[C@H](C)c1ccccc1

>  <tested target>
hLPAR1 (Homo sapiens, UniProt Q92633)

>  <val>
< 10 nM

$$$$
>  <compound>
Cc1noc(C2CCN(c3ccc(C4(C(=O)NS(=O)(=O)CC5(C(=O)O)CC5)CC4)cc3)CC2)c1NC(=O)O[C@H](C)c1ccccc1

>  <tested target>
hLPAR1 (Homo sapiens, UniProt Q92633)

>  <val>
< 10 nM

$$$$
>  <compound>
Cc1noc(C2CCN(c3ccc(C4(C(=O)NS(=O)(=O)C5(C(N)=O)CC5)CC4)cc3)CC2)c1NC(=O)O[C@H](C)c1ccccc1

>  <tested target>
hLPAR1 (Homo sapiens, UniProt Q92633)

>  <val>
< 10 nM

$$$$
>  <compound>
CO[C@@H](C(=O)Nc1c(C)noc1C1CCN(c2ccc(C3(C(=O)O)CC3)cc2)CC1)c1ccccc1

>  <tested target>
hLPAR1 (Homo sapiens, UniProt Q92633)

>  <val>
200 to 3000 nM

$$$$
>  <compound>
Cc1nc(C2(C(=O)O)CC2)ccc1N1CCC(c2onc(C)c2NC(=O)O[C@H](C)c2ccccc2)CC1

>  <tested target>
hLPAR1 (Homo sapiens, UniProt Q92633)

>  <val>
10 to 200 nM

$$$$
>  <compound>
COc1cc(C2(C(=O)O)CC2)ccc1N1CC2(CC(c3onc(C)c3NC(=O)O[C@H](C)c3ccccc3)C2)C1

>  <tested target>
hLPAR1 (Homo sapiens, UniProt Q92633)

>  <val>
< 10 nM

$$$$
>  <compound>
Cc1noc([C@@H]2CCN(c3ccc(C4(C(=O)O)CC4)cc3)[C@H](C)C2)c1NC(=O)O[C@H](C)c1ccccc1 (single isomer, unassigned)

>  <tested target>
hLPAR1 (Homo sapiens, UniProt Q92633)

>  <val>
10 to 200 nM

$$$$
>  <compound>
Cc1noc(C2CCN(c3ccc(C4(C(=O)NS(=O)(=O)C(C)C(=O)O)CC4)cc3)CC2)c1NC(=O)O[C@H](C)c1ccccc1 (stereo partly shown)

>  <tested target>
hLPAR1 (Homo sapiens, UniProt Q92633)

>  <val>
< 10 nM

$$$$
>  <compound>
Cc1noc(C2CC3(C2)CN(c2ccc(C4(C(=O)NS(C)(=O)=O)CC4)cc2)C3)c1NC(=O)O[C@H](C)c1ccccc1

>  <tested target>
hLPAR1 (Homo sapiens, UniProt Q92633)

>  <val>
< 10 nM

$$$$
>  <compound>
Cc1noc(C2CCN(c3ccc(C4(C(=O)O)CC4)cc3)CC2)c1CNC(=O)O[C@@H](C)c1ccccc1

>  <tested target>
hLPAR1 (Homo sapiens, UniProt Q92633)

>  <val>
10 to 200 nM

$$$$

Ref: patent US20260356824A1
